# measuredTarget: GST-Dm-Relish (Drosophila melanogaster, UniProt Q94527 99-473)
# Sequence: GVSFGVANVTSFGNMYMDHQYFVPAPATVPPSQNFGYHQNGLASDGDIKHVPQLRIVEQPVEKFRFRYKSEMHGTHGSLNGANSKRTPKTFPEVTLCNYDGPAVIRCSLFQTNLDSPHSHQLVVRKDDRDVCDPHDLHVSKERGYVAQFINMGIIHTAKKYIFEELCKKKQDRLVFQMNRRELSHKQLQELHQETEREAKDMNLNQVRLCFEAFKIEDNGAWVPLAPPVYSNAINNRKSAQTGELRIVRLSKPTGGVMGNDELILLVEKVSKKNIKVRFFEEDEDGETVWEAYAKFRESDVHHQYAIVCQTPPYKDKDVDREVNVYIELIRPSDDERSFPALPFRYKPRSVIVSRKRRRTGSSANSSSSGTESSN
# runDescription: protein-binding microarray (PBM); PBM: ~300 nM protein, 6 mM HEPES pH 7.8, 80 mM KCl, 0.5 mM EDTA, 0.5 mM EGTA, 6% glycerol, 35 ng/ul poly-dIdC, 1% milk, 1 h, room temperature; Ap Aiptasia and Nv Nematostella (sea anemones) / Co Capsaspora / Aq Amphimedon (sponge) / Dm Drosophila / Hu human; RHD is the Rel homology domain; high values mean tight binding
# measurementContext: dsDNA, one strand shown
Assign labels as follows, please: MET for binding signal below 5 z-score; NOT MET for binding signal equal to or exceeding 5 z-score.

Take a look at these entries with their results.
CCGATTAACATCAAAATTTTTCCTGATGTTAATCGGGTCTTGATTCGCTTGACGCTGCTG : MET
CCGATTAACATCAGGGATTTTCATGATGTTAATCGGGTCTTGATTCGCTTGACGCTGCTG : NOT MET
CCGATTAACATCAACGAATCCCCTGATGTTAATCGGGTCTTGATTCGCTTGACGCTGCTG : MET
CCGATTAACATCACGAATTCCCCTGATGTTAATCGGGTCTTGATTCGCTTGACGCTGCTG : NOT MET
CCGATTAACATCAAAATGCCCCCTGATGTTAATCGGGTCTTGATTCGCTTGACGCTGCTG : NOT MET
CCGATTAACATCAAGAACCCCCGTGATGTTAATCGGGTCTTGATTCGCTTGACGCTGCTG : NOT MET
CCGATTAACATCAAAAAAGTCCCTGATGTTAATCGGGTCTTGATTCGCTTGACGCTGCTG : NOT MET
CCGATTAACATCACGGAAATTTATGATGTTAATCGGGTCTTGATTCGCTTGACGCTGCTG : MET

Incoming: In the record for "CCGATTAACATCACGTGGTTTCCTGATGTTAATCGGGTCTTGATTCGCTTGACGCTGCTG" , is binding signal less than 5 z-score?
Outgoing: MET

# credit: paper PMC5700166
